# experimental-target: Torsin-1A (Homo sapiens) (UniProt O14656)
# Sequence (O14656 whole entry, looked up): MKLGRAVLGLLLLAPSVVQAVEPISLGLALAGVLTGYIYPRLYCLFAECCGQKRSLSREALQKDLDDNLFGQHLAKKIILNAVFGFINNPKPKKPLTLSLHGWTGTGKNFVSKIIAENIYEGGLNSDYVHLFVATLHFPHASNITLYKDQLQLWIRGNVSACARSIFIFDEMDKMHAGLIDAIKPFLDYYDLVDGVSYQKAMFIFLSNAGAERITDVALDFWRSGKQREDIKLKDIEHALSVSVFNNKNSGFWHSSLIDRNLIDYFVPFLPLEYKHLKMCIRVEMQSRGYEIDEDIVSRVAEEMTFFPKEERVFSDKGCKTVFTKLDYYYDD
# test-method-notes: small-molecule binders of mutant TOR1A in lysate, primary screen, cell lysate, small-molecule microarray, COS7 lysate, 635/667 nm fluorescence (AID 1150);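 further: score pools 667 nm emission and signal to noise measuring lysate protein binding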
# experimental-context: COS7 hTOR1A mutant lysate, 635 nm fluorescence, higher = more signal
measured-attribute: composite z-score

Which composite z-score is listed for `CCOC(=O)C[C@H]1[C@H](OC(=O)c2cc3ccccc3oc2=O)[C@@H](NC(=O)c2ccc3ccccc3c2)c2cc(OCCCO)ccc2N1C(=O)Cc1ccc(OC)cc1` ? 0.746

Which composite z-score is listed for `COCCOC(=O)N1C(=O)[C@@]2(c3cc(C#CCNC(N)=O)ccc31)[C@H](c1ccc(OCCO)cc1)N1[C@H](c3ccccc3)[C@H](c3ccccc3)OC(=O)[C@H]1[C@@H]2C(=O)NC[C@H](O)c1ccccc1` ? 0.792

Which composite z-score is listed for `COc1cc2c(cc1OC)CN(C(=O)[C@@H]1[C@H]3C(=O)O[C@H](c4ccccc4)[C@H](c4ccccc4)N3[C@H](c3ccc(O)cc3)[C@@]13C(=O)Nc1ccc(C#CCCO)cc13)CC2` ? 0.45

Which composite z-score is listed for `CCCCC=C[C@@H](NC(=O)c1ccccc1)c1ccccc1` ? 0.0135

Which composite z-score is listed for COc1ccc(C(O)C2C=CC3C(=O)N(c4ccccc4)C(=O)C3N2Nc2ccc(C(C)C)cc2)c2ccccc12 (centres undefined) ? 1.01

Which composite z-score is listed for COCC1C2CC[C@H]3C(OCc4ccc(OC)cc4)OC[C@]4(C)[C@H]3C2=C(CN4C(=O)OC(C)(C)C)[C@H](C)C1COC (some centres undefined) ? 0.255

Which composite z-score is listed for `CC(=O)NCCCC[C@@H]1NC(=O)[C@@H]2C[C@H](C(=O)NCCCCCCN)[C@H](c3cccc(OCCO)c3)N2C1=O` ? 0.464

Which composite z-score is listed for `C=C[C@@H](C)[C@@H](OC(=O)Nc1ccc(SC)cc1)c1ccc(OCCO)cc1` ? 1.04

Which composite z-score is listed for CCCCCN1CC=CC23O[C@@H]4C=CCOC(=O)[C@@H]4[C@H]2C(=O)N(CCO)[C@@H]3C1=O (some centres undefined) ? 1.78

Which composite z-score is listed for C=CCC(OC(C)=O)[C@@H]1[C@@H](N(Cc2cccc3ccccc23)C(=O)Cc2ccc(F)cc2)c2cc(OCCCO)ccc2N1C(=O)c1ccc(-c2ccccc2)cc1 (some centres undefined) ? 0.102

Which composite z-score is listed for `C=C(CCCC)C(=O)CC[C@@H](OC(=O)c1cccnc1)c1ccc(OCCO)cc1` ? 0.507

Which composite z-score is listed for `COCCCNC(=O)[C@@H]1c2ccccc2C(=O)N(C2Cc3ccccc3C2)[C@H]1c1ccc(CO)cc1` ? -0.184

Which composite z-score is listed for `CN(C)C(=O)[C@@]1(Cc2ccccc2N=[N+]=[N-])N=C(c2ccc(OCCCO)cc2)O[C@H]1c1ccccc1` ? 0.401

Which composite z-score is listed for COC(=O)C1=CC(CCCO)=CC(c2ccc(CN3CCCC3)cc2)N(Cc2cc3c(cc2Br)OCO3)C=C1C(=O)OC (centres undefined) ? 2.59

Which composite z-score is listed for `COC(=O)C(CC#Cc1ccc2c(c1)[C@]1(C(=O)N2)[C@H](c2ccc(O)cc2)N2[C@H](c3ccccc3)[C@H](c3ccccc3)OC(=O)[C@H]2[C@@H]1C(=O)N1CCCCCCC1)C(=O)OC` ? 0.592

Which composite z-score is listed for `CCCCC(=C=CC[C@H](O)c1ccc(OCCO)cc1)C[C@H](O)c1cc(Cl)cc(Cl)c1O` ? 0.51

Which composite z-score is listed for `CC(C)C(=C=CC[C@@H](O)c1cccc(OCCO)c1)C[C@@H](O)c1ccccn1` ? 0.405

Which composite z-score is listed for `C=C(COC)/C(=C/C[C@@H](OC(C)=O)c1ccc(CO)o1)c1cc(C(=O)OC)ccc1OC` ? 0.666

Which composite z-score is listed for CC(C)C[C@@H]1NC(=O)[C@@]23C(=O)N[C@@H](Cc4ccccc4)C2[C@H](C)[C@@]2(C)O[C@H]2C3/C=C/C/C=C\CNC(=O)[C@@H](C)NC1=O (some centres undefined) ? -0.196

Which composite z-score is listed for `[N-]=[N+]=NCc1ccccc1C[C@]1(C(=O)N2CCOCC2)COC(c2ccc(OCCCO)cc2)=N1` ? 1.56

Which composite z-score is listed for O=C1C2C=CC(C(O)c3ccc(I)cc3)N(Nc3ccccc3)C2C(=O)N1c1ccccc1 (centres undefined) ? 0.36

Which composite z-score is listed for `O=C1O[C@H](c2ccccc2)[C@H](c2ccccc2)N2[C@H]1[C@@H](C(=O)Nc1nc3ccccc3s1)[C@]1(C(=O)Nc3ccc(C#CC4=CCCCC4)cc31)[C@H]2c1ccc(O)cc1` ? 0.335

Which composite z-score is listed for `CN(C)CCCCNC(=O)[C@H]1C[C@H]2C(=O)N[C@@H](CCCC[N+](C)(C)C)C(=O)N2[C@H]1c1ccc(O)cc1` ? 0.97

Which composite z-score is listed for `COC(=O)[C@@]1(Cc2ccc(OC)cc2)[C@H]2c3cc(C(=O)N4CCCC4)n(Cc4ccc(OC(F)(F)F)cc4)c3C[C@H]2CN1C(=O)c1ccccc1` ? -0.89

Which composite z-score is listed for COc1cc(NN2C(C(O)c3ccc(I)cc3)C=CC3C(=O)N(c4ccccc4)C(=O)C32)cc(OC)c1OC (centres undefined) ? 0.743

Which composite z-score is listed for `COc1ccc([Si](C)(C)[C@@H]2[C@@H](CCn3cc([C@H](O)c4ccccc4)nn3)O[C@]3(C(=O)N(Cc4cccc(N5C(=O)c6cccc7cccc5c67)c4)c4ccccc43)[C@H]2C)cc1` ? -0.526

Which composite z-score is listed for CN1C(=O)C2C=CC(C(O)c3ccc(I)cc3)N(Nc3ccccc3)C2C1=O (centres undefined) ? 0.696

Which composite z-score is listed for C=C(C)[C@@H]1CC=C(C(O)C2C=CC3C(=O)N(c4ccccc4)C(=O)C3N2Nc2ccc(C#N)cc2)CC1 (some centres undefined) ? 0.454

Which composite z-score is listed for `CC(C)C[C@@H]1NC(=O)[C@@H]2C[C@H](C(=O)NCCCCCC[N+](C)(C)C)[C@H](c3cccc(OCCO)c3)N2C1=O` ? 0.393
